Numbers sourced from paper PMC8443706.

Molecular target: T1, IIB-Fc:IIB-Fc homodimer (human ActRIIB ECD fused to human IgG1 Fc) (human, UniProt Q13705-1 19-134)
T1 construct: activin receptor type IIB (ActRIIB) extracellular domain, human, aa 19-134 of NP_001097.2; Chains linked by disulfide bonds between the Fc domains; a form with murine IgG2a Fc was used only in mice; also called ActRIIB-Fc homodimer; ActRIIB-Fc; not shown: Fc (human IgG1), C-terminal, kept
T1 sequence (Q13705 19-134): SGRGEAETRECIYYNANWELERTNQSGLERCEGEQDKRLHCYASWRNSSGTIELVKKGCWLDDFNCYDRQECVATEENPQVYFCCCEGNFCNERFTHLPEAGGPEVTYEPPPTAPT
Test: SPR; Biacore 8K, 37 °C; Fc-fusion receptor dimers captured by anti-human Fc antibody on a CM5 chip (100-150 RU); ligands injected in two-fold dilution series (300 s association, 600 s dissociation); HBS-EP+ supplemented with 350 mM NaCl and 0.5 mg/mL BSA; 1:1 Langmuir model with a term for mass transport
Conditions: both partners purified
MEASUREMENT_LABEL: koff (s⁻¹)

a: GDF11 (ligand, human, UniProt O95390 299-407, looked up, source: generated in house) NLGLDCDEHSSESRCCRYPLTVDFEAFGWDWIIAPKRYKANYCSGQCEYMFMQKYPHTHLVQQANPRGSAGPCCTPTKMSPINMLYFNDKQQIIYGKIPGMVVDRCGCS
b: GDF3 (ligand, human, UniProt Q9NR23 251-364, looked up, source: bought: R&D Systems) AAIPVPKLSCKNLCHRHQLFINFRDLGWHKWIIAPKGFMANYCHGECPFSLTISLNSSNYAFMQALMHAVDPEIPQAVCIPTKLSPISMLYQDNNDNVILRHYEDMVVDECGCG
Higher koff: a or b ? Respond with the label that goes with your answer.
b
(b: 0.00188 s⁻¹, a: 7.56e-05 s⁻¹)
